The origin of these recorded values is paper PMC7532178.

Reported Kd values for a set of binders
Biological target: T1, harmonin-NTD-PDZ1 (aa 1-192) (UniProt Q9ES64 1-192)
T1 construct: extra 7 aa at the N-terminus of all recombinant proteins of the study; harmonin, residues 1-192 (NTD and PDZ1), numbers on GenBank AF228925.1; also called NTD-PDZ1-Hp domain of harmonin; source: E. coli BL21 (DE3) codonPlus-RIPL, purified (Glutathione Sepharose 4B, GST removed by TEV proteinase, SEC)
T1 sequence: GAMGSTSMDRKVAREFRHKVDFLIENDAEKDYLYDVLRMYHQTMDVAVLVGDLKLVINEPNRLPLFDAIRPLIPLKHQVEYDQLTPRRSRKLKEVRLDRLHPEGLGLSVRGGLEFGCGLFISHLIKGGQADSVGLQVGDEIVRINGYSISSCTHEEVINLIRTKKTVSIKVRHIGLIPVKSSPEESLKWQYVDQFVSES
Assay: SPR; harmonin fragments or full-length harmonin-a1 with C-terminal peptides; Fig. S10 and data not shown
Conditions: both partners purified
No end group written: not given here. *: point of attachment. Biotin = O=C1N[C@H]2[C@H](CS[C@H]2CCCCC(=O)*)N1; TTDS = trioxatridecan-succinamic acid spacer

Worked examples follow.
1) {Biotin-TTDS}-GANSEQYNTAL (C-terminal 11 aa of protocadherin-15 isoform CD2, including the PBM; source: synthetic peptide (Eurogentec); not shown: biotin, N-terminal, kept) [PCDH15-CD2 C-terminal peptide (biotin-TTDS-GANSEQYNTAL)] ... > 200 µM
2) {Biotin-TTDS}-MGPWNSLHIPMTKL (C-terminal 14 aa of protocadherin-15 isoform CD3, including the PBM; source: synthetic peptide (Eurogentec); not shown: biotin, N-terminal, kept) [PCDH15-CD3 C-terminal peptide (biotin-TTDS-MGPWNSLHIPMTKL)] ... > 200 µM

Consider the additional binder presented here.
Given the entry {Biotin-TTDS}-GIDVQPHSQSTSL (C-terminal 13 aa of protocadherin-15 isoform CD1, including the PBM; source: synthetic peptide (Eurogentec); not shown: biotin, N-terminal, kept) [PCDH15-CD1 C-terminal peptide (biotin-TTDS-GIDVQPHSQSTSL)] , report its measured Kd.
> 200 µM
